METHOD: chemical genetic growth profiling, strain panel (AID 1159580);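 also: tested at 20 µM; growth read once vehicle control cultures reached saturation at 30 °C; 1 = growth at the plate median or of vehicle wells; lower values mean less growth of the strain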
MEASUREMENT_CONTEXT: S. cerevisiae deletion strains, growth OD, locus YGR052W, strain FMP48, stronger effect = lower value
The campaign covered roughly 5,500 compounds. About 2,000 (36%) were called active. About 18% were inconclusive and are not listed. Some of the results follow.
Please go through the items and note down their normalized growth.

Dear colleague, could you send me normalized growth for each of the items below? Thanks.
1. O=C(Nc1ccccc1Sc1ccc(C(F)(F)F)cc1[N+](=O)[O-])C(Cl)Cl
2. O=C(Nc1cc(Cl)cc(Cl)c1)c1cc(Br)ccc1O
3. O=C(Nc1ccc(F)cc1)c1cc(Br)ccc1O
4. NNC(=O)c1oc2nc(-c3ccccc3)cc(-c3ccccc3)c2c1N
5. CC(C)Sc1c(Cl)cccc1NC(=O)Nc1cccc(C(F)(F)F)c1
6. CC1SC(c2cccnc2)N(c2ccc(F)cc2F)C1=O (configuration not stated)
7. O=C(OCCNc1ccc([N+](=O)[O-])cn1)c1ccc([N+](=O)[O-])o1

## Output
["0.963 (inactive)", "0.847 (inactive)", "0.901 (inactive)", "0.952 (inactive)", "1.04 (inactive)", "0.931 (inactive)", "0.735 (inactive)"]
